tested on: UACC-62 melanoma; test: NCI tumour cell line growth inhibition, 48 h; in the data active = GI50 below about 0.43 µM; inactive = the rest
# valid calls are Y for active, N for inactive; nothing else

Would you please look over these solved cases?
compound | targetEntity | discreteLabel
COc1cc(C2CC(c3cccc(Nc4ccncc4)c3)=NN2c2ccc(Cl)cc2)cc(OC)c1OC (centres undefined) | UACC-62 melanoma | N
C[C@@]12CCC[C@@](C)(C(=O)O)C1CC[C@]13CC(=O)[C@](CO)(C1)[C@@H](O)CC32 (some centres undefined) | UACC-62 melanoma | N
Cn1c(=O)c(Oc2ccc(F)cc2)cc2cnc(NC3CCOCC3)nc21 | UACC-62 melanoma | N
O=[P@@]1(c2ccccc2)O[C@H](COCc2ccccc2)[C@@H](OCc2ccccc2)[C@H](OCc2ccccc2)[C@H]1NCc1ccccc1 | UACC-62 melanoma | N
Clc1nc(Cl)nc(Nc2cccc3ccccc23)n1 | UACC-62 melanoma | N

[in] Test call, this compound: COc1ccc(-c2nsc3c2NC(=O)CC3c2cccc(OC)c2)cc1 (centres undefined)
[out] N

[in] Query: recorded result category for NCCCn1c2c(c3ccc([N+](=O)[O-])cc3c1=O)C(=O)c1ccccc1-2 in this test
[out] Y

[in] Please state the recorded outcome for this compound: COc1ccc(-c2cc(/C=C/C(=O)c3ccc(OC)c(OC)c3)[nH]n2)cc1
[out] N

[in] GET /call?item= Cn1c(Nc2ccc(C(F)(F)F)cc2)nc2cc(Oc3ccnc(-c4ncc(C(F)(F)F)[nH]4)c3)ccc21 returns the recorded outcome of this test.
[out] Y

----------
tested on: SK-MEL-2 melanoma; assay: NCI tumour cell line growth inhibition, 48 h
assayReadout: TGI (µM)
Use µM as the unit, but write only the number.

compound | targetEntity | assayReadout | reportedMeasurement
Cn1cc(-c2csc(-c3c[nH]c4ccc(Br)cc34)n2)c2cnccc21 | SK-MEL-2 melanoma | TGI | 6.35

[in] I would be grateful if you could share the reported TGI for CC(C)=CCc1cc(O)cc2c1OC(C=C(C)C)C1=C2C(=O)C2=C(C1=O)S(=O)(=O)CCN2 (stereo not given) .
[out] 6.56

----------
tested on: M14 melanoma; test: NCI tumour cell line growth inhibition, 48 h
Recorded TGI for the following molecules
The response must be a number in µM with no trailing unit.

Below are worked cases with known answers.
sampleSmiles | unitOfMeasure | TGI
O=C1CCC/C=C\C[C@H]2C=CC(=O)/C2=C/C[C@H](C/C=C\CC(F)(F)F)O1 | µM | 1.7
COc1ccc(C[C@H]2COC(=O)[C@@H]2Cc2cccc(Br)c2)cc1OC | µM | 27.8
COC(C)(C)OCCN1CCN(CCN2C3=C(C=C(C(C)=O)C3)Sc3ccccc32)CC1 | µM | 40.4

Consider the additional molecule presented here.
[in] Which TGI reading was recorded for the molecule Cn1c(Nc2ccc(C(F)(F)F)cc2)nc2cc(Oc3ccnc(-c4ncc(C(F)(F)F)[nH]4)c3)ccc21 ?
[out] 1.33

----------
test system: UACC-257 melanoma; assay: NCI tumour cell line growth inhibition, 48 h
Measured log10(TGI), listed per entry for reference.
// stored as log10 of TGI expressed in µM

# annotated cases, reported log10(TGI) shown
compound | targetEntity | log10(TGI)
Cc1nc2cc(Nc3nc(Nc4ccc(F)cc4)nc(-c4cccs4)n3)ccc2n1Cc1ccccc1 | UACC-257 melanoma | 1.48
COc1ccc(C(O)(CCC(C)C)C(CN2CCOCC2)c2ccc(Cl)cc2)cc1 (stereo not given) | UACC-257 melanoma | 1.52
O=C(CSc1c2ccccc2nc2ccccc12)Nc1ccccc1-c1ccccc1NC(=O)CSc1c2ccccc2nc2ccccc12 | UACC-257 melanoma | 1.88
C[Si](C)(C)/C(I)=C/CO | UACC-257 melanoma | 1.66
CN(C)CCNC(=O)c1cccc2ccc(-c3ccc(F)cc3)nc12 | UACC-257 melanoma | 1.25

Field: next compound
[in] For the compound shown here, COc1cccc2c1C(=O)c1c(O)c3c(c(O)c1C2=O)C[C@@](O)(/C(C)=N/NC(=O)c1ccc(Cl)cc1)C[C@@H]3OC1CC(N)C(O)C(C)O1 (stereo not given in full) , give the reported log10(TGI).
[out] -0.06

----------
test system: TK-10 renal; experiment: NCI tumour cell line growth inhibition, 48 h
Below: a set of entries, each annotated with reported TGI.

Record excerpt, results attached:
compound | targetEntity | TGI
CS(=O)(=O)Nc1cc(-c2ccc3ncnc(Nc4c(Cl)ccc5c4OCO5)c3c2)cnc1Cl | TK-10 renal | 0.888 µM
CCOC(=O)/C=C/c1ccc(C#Cc2ccccc2)cc1 | TK-10 renal | > 100 µM
Cc1nc2ccc(F)cc2c2c1CCN2c1ccc(Cl)cc1 | TK-10 renal | 41.7 µM
CC1CCN(C(=O)OCc2nc3nc(Cl)nc(N4CCOCC4)c3[nH]2)CC1 | TK-10 renal | 3.44 µM
Oc1ccc2ccccc2c1N=Nc1ccc(Br)cc1 | TK-10 renal | > 100 µM

[in] TGI lookup needed for Cc1cc(/N=C/c2ccc(F)cc2)n(-c2ccccc2)n1 , thanks.
[out] > 100 µM

[in] Which TGI value belongs to CCOC(=O)c1ccc(N=Nc2cc(C(=O)OCC)ccc2O)cc1 ?
[out] > 100 µM

[in] Reported TGI, compound CN(CCN(C)C(=O)CCn1cc(F)c(=O)[nH]c1=O)C(=O)CCn1cc(F)c(=O)[nH]c1=O : ____
[out] > 100 µM

[in] Could you tell me which TGI is on file for CCOC(=O)NNC(=O)NCCCCNC(=O)NNC(=O)OCC ?
[out] > 100 µM

[in] Which TGI reading was recorded for the compound CCOC(=O)/C=C(\C(=O)OCC)n1ccc(=O)n(Cc2cn(CCCCOC(C)=O)nn2)c1=O ?
[out] 13.6 µM

[in] Returns the measured TGI for the input compound. Input: CCOC(=O)c1sc2c(c1OC(=O)c1ccc(OC)cc1)c(=O)n(-c1ccccc1)c(=S)n2-c1ccccc1
[out] > 100 µM

[in] Fill in the blank: the reported TGI of CNCCCn1c2ccccc2c2c3c(c(-c4ccsc4)cc21)C(=O)NC3=O is ____.
[out] 3.23 µM

[in] Which TGI is reported for this compound? CC(C)[Si]1(C(C)C)OCC2OC3(CO)C(Oc4nc(=O)ccn43)C2O[Si](C(C)C)(C(C)C)O1 (centres undefined)
[out] 32.1 µM

----------
tested on: SK-MEL-28 melanoma; assay: NCI tumour cell line growth inhibition, 48 h
Each entry below lists one item and its recorded TGI value.

Please review the following examples before continuing.
sampleSmiles | targetEntity | TGI
O=C(O)c1ccc(C(=O)O)c2c(C(=O)O)ccc(C(=O)O)c12 | SK-MEL-28 melanoma | > 100 µM
Cc1cc2cc3c(=O)[nH]c(=O)[nH]c3nc2cc1C | SK-MEL-28 melanoma | > 100 µM
CN1CC[C@@H](c2c(O)cc(O)c3c(=O)cc(-c4ccc(C(F)(F)F)cc4Cl)oc23)[C@@H]1CO | SK-MEL-28 melanoma | 32.2 µM
CN(C)/N=C1/CCC(C(F)(F)F)(C(F)(F)F)O1 | SK-MEL-28 melanoma | > 100 µM

Kindly review the next compound as well.
[in] State the recorded TGI for this entry: CCOC(=O)c1ccc(N=Nc2cc(C(=O)OCC)ccc2O)cc1
[out] > 100 µM

----------
tested on: HCC-2998 colon; assay: NCI tumour cell line growth inhibition, 48 h
The compounds listed here are annotated with their TGI.

compound | targetEntity | TGI
CC(C(=O)O)c1cccc(Oc2ccccc2)c1 (stereo not drawn) | HCC-2998 colon | > 100 µM

[in] Item COC(C)(C)OCCN1CCN(CCN2C3=C(C=C(C(C)=O)C3)Sc3ccccc32)CC1 has what recorded TGI?
[out] 36.2 µM

[in] Consider the compound shown here: O=[N+]([O-])c1cccc2ccc(N/N=C/c3ccccc3O)nc12 What is its recorded TGI?
[out] > 100 µM

[in] Please give the measured TGI for this compound: O=C(CSc1c2ccccc2nc2ccccc12)Nc1ccccc1-c1ccccc1NC(=O)CSc1c2ccccc2nc2ccccc12
[out] 34.5 µM

[in] Could you tell me which TGI is on file for CCOC(=O)c1c(-c2ccc(OC)cc2)c(C#N)c2c(C#N)c(N)nn2c1N ?
[out] > 100 µM

[in] Data request, read-out TGI, for COc1cc(/C=C\c2cc(OC)c(OC)c(OC)c2)cc(N/C=C\C(=O)c2cc(OC)c(OC)c(OC)c2)c1OC
[out] > 100 µM

[in] Form field: reported TGI of O=S(=O)(Nc1ccc(Cl)cc1Cl)c1ccc(-c2cnc(C3CC3)o2)cc1
[out] 16.5 µM

[in] // query TGI value for entry C=C(C)C1CCC2(C)CC1c1c(c(C)cc3c1[nH]c1ccccc13)O2 (stereo not drawn)
[out] > 25 µM

[in] So what's the measured TGI for this one? CC1C=CN(N(C)C)C2=C1C(=O)c1cnccc1C2=O (stereo not drawn)
[out] 1.8 µM

[in] Request the reported TGI associated with CCOC(=O)c1nc2cc(F)c(N3CCOCC3)cc2[nH]c1=O
[out] > 100 µM

[in] Given the compound CCOC(=O)/C=C(\C(=O)OCC)n1ccc(=O)n(Cc2cn(CCCCOC(C)=O)nn2)c1=O , what is its reported TGI?
[out] 41 µM

[in] Bench note: what TGI did NCC(=O)Nc1ccc(S(=O)(=O)O)c2cc(S(=O)(=O)O)cc(S(=O)(=O)O)c12 show?
[out] > 100 µM

[in] I'd like to know its TGI. The compound in question is NCCc1cc(O)c(O)cc1O
[out] > 100 µM

[in] Name the recorded TGI for CC(C)=CCC/C(C)=C/CC/C(C)=C/CC(CO)N(C)CC/C=C(\C)CCC=C(C)C (stereo not drawn) .
[out] 10.8 µM

[in] Which TGI reading was recorded for the compound BrCc1cccc(C[P+](c2ccccc2)(c2ccccc2)c2ccccc2)c1 ?
[out] > 100 µM

[in] Would you mind telling me what TGI value was observed for O=C(NNc1ccccc1)C(=O)NNc1ccccc1 ?
[out] > 100 µM

[in] Name the recorded TGI for CCOC(=O)c1sc2c(c1OC(=O)c1ccc(OC)cc1)c(=O)n(-c1ccccc1)c(=S)n2-c1ccccc1 .
[out] 38 µM

[in] Suppose we examine the compound COCOC1C=CCCCC2=CC(C)=C(CC1)O2 (stereo not drawn) ; what TGI value has been reported?
[out] > 100 µM

The measured values listed here are drawn from PubChem BioAssay (NCI).
